System: YAP/TAZ
Assay: Screening: YAP/TAZ activity reporter (8xGTIIC plasmid) assay in NUGC3 cells (luminescence % of DMSO)
Format: cell-based, human
Conditions: NUGC3 cells; luminescence relative to DMSO; concentration not given
endpoint-label: 8×GTIIC (%)
Quick note: give the figure in %, leave out the unit.

Guide cases for 8×GTIIC, answers given:
compound	value-units	8×GTIIC
CCc1cc(CC)cc(C2=NC(S(=O)(=O)c3ccc(C)cc3)C(c3cccc(CC)c3CC)C2)c1 (stereo not drawn)	%	45.63
CCc1cccc(C2CC(c3ccc(C)cc3)=NC2S(=O)(=O)c2ccccc2)c1CC (stereo not drawn)	%	53.76
Cc1ccc(C2=NC(S(C)(=O)=O)C(c3ccc(C)cc3)C2)cc1 (stereo not drawn)	%	187.1
CCc1ccc(C2CC(c3ccc(C)cc3)=NC2S(=O)(=O)c2ccccc2)cc1 (stereo not drawn)	%	70.13
CCc1cccc(C2CC(c3ccc(C)cc3)=NC2S(C)(=O)=O)c1 (stereo not drawn)	%	121.9

// field: 8×GTIIC; key: Cc1ccc(C2=NC(S(=O)(=O)c3ccccc3C)C(c3ccc(C)cc3)C2)cc1 (stereo not drawn) ; value = 93.3

// field: 8×GTIIC; key: Cc1ccc(C2=NC(S(=O)(=O)c3ccccc3)C(c3ccc(C)cc3)C2)cc1 (stereo not drawn) [PVZF0096] ; value = 103.6

// field: 8×GTIIC; key: CCc1cccc(C2CC(c3ccc(C)cc3)=NC2S(=O)(=O)c2ccc(C)cc2)c1CC (stereo not drawn) [PVZF0069] ; value = 49.99

// field: 8×GTIIC; key: CCc1ccccc1C1CC(c2ccc(C)cc2)=NC1S(C)(=O)=O (stereo not drawn) ; value = 44.13

* * *

This listing pairs compounds with measured 8×GTIIC.
Tested on: YAP/TAZ
Test: Screening: YAP/TAZ activity reporter (8xGTIIC plasmid) assay in NUGC3 cells (luminescence % of DMSO)
Assay type: cell-based, human
Settings: YAP/TAZ activity reporter (8×GTIIC), NUGC3 cells, luminescence relative to DMSO; concentration not given
Quick note: give the figure in %, leave out the unit.

compound	value-units	8×GTIIC
CCCC(=O)C1CCC(CS(=O)(=O)c2ccc(C)cc2C)CC1 (centres unmarked)	%	46.27
CC(C)(C)c1ccc(S(=O)(=O)CC2CCCCC2)cc1	%	44.55
O=S(=O)(CC1CCC(C2CC2)CC1)c1ccc2c(c1)CCCC2 (centres unmarked) [SA031]	%	76.14
O=S(=O)(CCC1CCCCC1)c1ccc2ccccc2c1	%	51.25

Field: next compound
Sample CC(C)(C)c1cc(C(C)(C)C)cc(S(=O)(=O)CC2CCC(S(C)(=O)=O)CC2)c1 (centres unmarked) , system: YAP/TAZ. Its 8×GTIIC is 109.7

* * *

This listing pairs molecules with measured 8×GTIIC.
System: YAP/TAZ
Experiment: Screening: YAP/TAZ activity reporter (8xGTIIC plasmid) assay in NUGC3 cells (luminescence % of DMSO)
Assay type: cell-based, human
Settings: NUGC3 cells; luminescence relative to DMSO; concentration not given
Could you give the number and then its unit, please?

molecule	8×GTIIC
Cc1ccc(C2=NC(S(=O)(=O)c3ccccc3C)C(c3cccc(C)c3)C2)cc1 (stereo not drawn)	73.79%
CCc1cccc(C2CC(c3ccc(C)cc3)=NC2S(=O)(=O)c2ccccc2C)c1CC (stereo not drawn) [PVZF0051]	36.59%
CCc1cc(OC)cc(C2=NC(S(=O)(=O)c3ccccc3)C(c3cccc(CC)c3CC)C2)c1 (stereo not drawn)	58.96%
Cc1ccc(C2=NC(S(=O)(=O)c3ccccc3)C(c3ccc(C)cc3)C2)cc1 (stereo not drawn) [PVZF0086]	57.06%

// field: 8×GTIIC; key: CCc1ccc(C2=NC(S(=O)(=O)c3ccc(C)cc3)C(c3cccc(CC)c3CC)C2)cc1CC (stereo not drawn) ; value = 56.18%

// field: 8×GTIIC; key: CC(=O)c1cccc(C2CC(c3ccc(C)cc3)=NC2S(=O)(=O)c2ccc(C)cc2)c1 (stereo not drawn) ; value = 66.76%

// field: 8×GTIIC; key: Cc1ccc(C2=NC(S(=O)(=O)c3ccc(C)cc3)C(c3ccccc3)C2)cc1 (stereo not drawn) ; value = 76.88%

// field: 8×GTIIC; key: CCc1ccccc1C1CC(c2ccc(C)cc2)=NC1S(=O)(=O)c1ccccc1C (stereo not drawn) ; value = 67.6%

// field: 8×GTIIC; key: CCc1cccc(C2CC(c3cccc(C)c3)=NC2S(=O)(=O)c2ccccc2)c1CC (stereo not drawn) ; value = 91.32%

// field: 8×GTIIC; key: CC(=O)c1cccc(C2CC(c3ccc(C)cc3)=NC2S(=O)(=O)c2ccccc2)c1 (stereo not drawn) ; value = 59.77%

// field: 8×GTIIC; key: CCc1cccc(C2CC(c3ccc(C)cc3)=NC2S(C)(=O)=O)c1CC (stereo not drawn) ; value = 79.74%

// field: 8×GTIIC; key: CCc1ccc(CC)c(C2CC(c3ccc(C)cc3)=NC2S(=O)(=O)c2ccccc2C)c1 (stereo not drawn) ; value = 34.58%

The measurements presented in this section are drawn from patent US20230210834A1.
